# procedure_summary: Restrictive medium S. cerevisiae growth inhibition, OD615, pilot screen of yeast lifespan reduction project, restrictive growth control (AID 706);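 also: modified DeaD lifespan yeast strain shifted to restrictive glucose medium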
# condition_details: OD615, 48 h, at 10 µM, stronger effect = higher value
Field: growth inhibition. Provide a value for each of the compounds that follow.
One number for each entry, in %.

Can you look up the measured growth inhibition of O=C(CCSCCC(=O)NCc1ccco1)NCc1ccco1 for me? 10.5

Please give growth inhibition for each item listed below.
1. Cc1c(C(=O)NCc2ccc3c(c2)OCO3)oc2ccc(S(=O)(=O)N3CCCC3)cc12
2. Cc1nc2ccccc2c2nc3ccccc3n12

1. -4.95
2. 43.3

Please give growth inhibition for each item listed below.
1. Cc1ccc(S(=O)(=O)c2nc(-c3ccc(F)cc3)oc2SCC(=O)NCC2CCCO2)cc1 (configuration not stated)
2. O=C(Nc1cccc(F)c1)Nc1ccccn1
3. NC1=C(c2ccc(F)cc2)C(=O)CS1

1. -4.51
2. -7.43
3. 4.04

Can you look up the measured growth inhibition of COc1ccc(OC)c(NC(=O)c2ccc(CN3CCOCC3)cc2)c1 for me? 0.145

* * *

# procedure_summary: SK-BR-3 cell growth inhibitors, pilot screen, 24 h, human (AID 572);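 also: compound exposure lasted between 18 and 24 h rather than exactly 24 h; 100% = carrier-treated control wells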
# condition_details: SK-BR-3 viability, CellTiter-Glo luminescence, at 10 µM, stronger effect = lower value
Field: viability. Provide a value for each of the compounds that follow.
Numbers only, in %.

The following compounds have reported results that may help.
Can you look up the measured viability of CN(C)/C=C1\N=C(c2ccc3c(c2)OCO3)OC1=O for me? 91

Can you look up the measured viability of c1ccc(CC2CCN(C(c3cccs3)c3nnnn3C3CCCC3)CC2)cc1 (configuration not stated) for me? 102

Can you look up the measured viability of Nc1cc(C(=O)O)ccc1Nc1ccc(F)c(F)c1 for me? 88

Can you look up the measured viability of CCOC(=O)C(CCc1nnc(N)s1)C(=O)OCC for me? 87.5

Can you look up the measured viability of COc1ccc(C(CNC(=O)c2ccc(OCC3CCCO3)cc2)N2CCOCC2)cc1 (configuration not stated) for me? 90

Can you look up the measured viability of CCOC(=O)C(C)Sc1nc2c(cnn2-c2ccc(C)cc2)c(=O)[nH]1 (configuration not stated) for me? 83

Below: the item to evaluate.
Can you look up the measured viability of Cc1ccc(Cl)cc1NC(=O)CSc1nnc(C)n1-c1ccccc1 for me? 90

* * *

# procedure_summary: growth inhibitors of H69AR lung tumor, primary screen, human, duplicate replicates (AID 580);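 also: 100% = mean luminescence of untreated wells and 0% = no signal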
# condition_details: H69AR lung tumor cells viability, ATP luminescence, 72 h; at 10 µM; stronger effect = lower value
Field: viability. Provide a value for each of the molecules that follow.
Numbers only, in %.

Please give viability for each item listed below.
1. CCCCC1C(=O)N(c2ccccc2)N(c2ccccc2)C1=O
2. Cc1cc(C)cc(NC(=O)C2CCCN(S(=O)(=O)c3cnc[nH]3)C2)c1 (configuration not stated)
3. Nc1nc(-n2cnnc2)nn1-c1ccccc1
4. Cc1cc2ccccn2c1C(=O)c1ccncc1

1. 98.5
2. 88.6
3. 101
4. 87.9

Please give viability for each item listed below.
1. O=C(CSc1nnc2sc3ccccc3n12)c1ccco1
2. CN(C)C(=O)N1CCCC(C(=O)NCc2ccccc2)C1 (configuration not stated)
3. COc1ccc(-n2nnc3c(=O)n(C/C=C/c4ccccc4)cnc32)cc1
4. COc1ccc2cc([C@H](C)C(=O)O)ccc2c1
5. O=C(OCc1ccc2c(c1)OCO2)c1ccc(S(=O)(=O)N2CCCCC2)cc1
6. COCCN1C(=O)c2oc3c(C)cc(C)cc3c(=O)c2C1c1cccc(O)c1 (configuration not stated)
7. O=C(CSc1ncnc2c1oc1ccccc12)Nc1ccccc1C(F)(F)F

1: 102; 2: 87.8; 3: 86.1; 4: 94.8; 5: 81.9; 6: 88.1; 7: 95.8

* * *

# procedure_summary: growth suppression of beta-catenin knockout HCT116, pilot screen, human colon tumor cells (AID 823);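 also: 0% = wells killed by 20 µM Hyamine and 100% = untreated DMSO cell wells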
# condition_details: CellTiter-Glo, 60 h, at 10 µM, stronger effect = lower value
Records with an inconclusive call do not appear.
Field: viability. Provide a value for each of the compounds that follow.
One number for each entry, in %.

The following compounds have reported results that may help.
Can you look up the measured viability of CC(C)c1nc2sc3c(SCC(=O)NCc4ccco4)ncnc3c2c2c1CCC2 for me? 91.7

Can you look up the measured viability of CCOc1ccc(N(CC(=O)Nc2ccc(OC)cc2)S(=O)(=O)c2c(C)noc2C)cc1 for me? 83.5

Can you look up the measured viability of C=CCn1c(SCCCc2ccccc2)nc2c1c(=O)[nH]c(=O)n2C for me? 67.8

Please give viability for each item listed below.
1. O=C(OCN1C(=O)c2ccccc2C1=O)c1ccco1
2. CC(=O)N1CCc2cc(C(=O)CN3CCN(c4cccc(Cl)c4)CC3)ccc21
3. O=C(NCc1ccc2c(c1)OCO2)C1CCC(CNc2c(N3CCCC3)c(=O)c2=O)CC1 (stereo unspecified)

[96.7, 69.3, 104]

Please give viability for each item listed below.
1. COc1ccc(C2CC(C(F)(F)F)n3nc(C(=O)O)c(Cl)c3N2)cc1OC (stereo unspecified)
2. CCCC1(C(=O)O)NC(c2ccccc2O)C2C(=O)N(Cc3ccccc3)C(=O)C21 (stereo unspecified)

[105, 97.5]

Please give viability for each item listed below.
1. CC1(C)CC(=O)c2cc(C(=O)N3CCN(CCO)CC3)c(=O)n(-c3ccc(Cl)cc3)c2C1
2. CCOc1ccccc1N1CCN(C(=O)c2cc(C)oc2C)CC1
3. O=C1C(C=NCCN2CCOCC2)=C(O)c2ccccc21
4. O=c1[nH]c2ccc(S(=O)(=O)NCc3ccccn3)cc2s1
5. c1cn2cc(-c3ccc4c(c3)OCO4)nc2s1
6. Cc1cc(Nc2ccccc2Br)n2nc(C)nc2n1
7. Cc1noc(/C=C/N(C)C)c1S(=O)(=O)N1CCCC(C(=O)NC2CCCCC2C)C1 (stereo unspecified)
8. COc1ccc(-n2c(Cn3c(=O)sc4ccccc43)nnc2SCC(=O)N2CCCCC2)cc1

1: 103; 2: 89.2; 3: 100; 4: 95.8; 5: 99.7; 6: 107; 7: 87.1; 8: 99.6

Please give viability for each item listed below.
1. O=C(COc1ccc2c3c(c(=O)oc2c1)CCC3)c1ccc2c(c1)OCO2
2. O=C(c1c(F)cccc1F)N1CCN(c2cccc(C(F)(F)F)c2)CC1
3. COC(=O)CN1C(=O)CC(C)(C)Sc2ccccc21
4. COCCCNC(=O)CS(=O)Cc1nc(-c2ccccc2C)oc1C (stereo unspecified)
5. COc1ccc(OC)c(C2CC(=O)N3CN(c4ccc(C)c(Cl)c4)CSC3=C2C#N)c1 (stereo unspecified)
6. Cc1sc2ncnc(Sc3nnc4sc5ccccc5n34)c2c1C
7. Cc1cc(C(=O)N2CCN(c3ccccn3)CC2)no1

1. 63.2
2. 83.8
3. 103
4. 97.9
5. 90.6
6. 55.4
7. 109

* * *

# procedure_summary: HUVEC growth inhibition – cell-based, human, primary screen (AID 575);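 also: 100% = median of untreated cell wells with 0.1% DMSO on each plate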
# condition_details: HUVEC proliferation, CellTiter-Glo luminescence, 72 h; at 10 µM; stronger effect = lower value
recorded_metric: viability (%)
Numbers only, in %.

Please give viability for each item listed below.
1. CC1CCCCC1NC(=O)c1nn(C)c(=O)c2ccccc12 (stereo not drawn)
2. CCOc1ccc(N2C(N)=NC(N)=NC2(C)C)cc1

1: 90.4; 2: 101

Please give viability for each item listed below.
1. Cc1ccccc1NC(=O)Cc1nnc(SCC(=O)N2CCN(c3ccccc3)CC2)n1C
2. CC(=O)OCC(=O)c1ccc2ccn(C(C)=O)c2c1
3. CCOC(=O)N1CCN(S(=O)(=O)c2cc(C)c(C)cc2C)CC1
4. CCN(Cc1nc2cc(OC)c(OC)cc2c(=O)[nH]1)C(=O)c1ccc(S(=O)(=O)N(C)C)cc1
5. COc1cccc(Cn2c(OCC3CCCO3)nc3c2c(=O)n(C)c(=O)n3C)c1 (stereo not drawn)
6. Nc1cc(C(=O)O)ccc1Nc1ccc(F)c(F)c1
7. Cn1c(=O)c2nc(Cl)n(Cc3ccc(Cl)cc3Cl)c2n(C)c1=O

[101, 94.9, 104, 88.2, 104, 89.2, 105]

Please give viability for each item listed below.
1. O=C(c1ccc(S(=O)(=O)N2CCOCC2)cc1)N(c1ccc(F)cc1)C1C=CS(=O)(=O)C1 (stereo not drawn)
2. CCS(=O)(=O)c1nc2ccccc2n1CC(=O)N1CCCCC1
3. Cc1cc(C)c(C)c(S(=O)(=O)Nc2ccc(O)cc2)c1C
4. CCn1cc(C(C)NC(=O)COc2ccc(Cl)cc2C)c(C)n1 (stereo not drawn)

75.1
96.7
96.6
93.9

* * *

# procedure_summary: reversal of MRP1-mediated doxorubicin resistance, pilot screen, H69AR cells, doxorubicin co-treatment (AID 601)
# condition_details: H69AR cells + 2 uM doxorubicin, CellTiter-Glo, 72 h; measured here: viability with 2 uM doxorubicin; at 10 µM; stronger effect = lower value
Rule for this label: 1.0 means viability is less than 90%; 0.0 means viability is at least 90%.

Take a look at these entries with their results.
Consider the compound CCCn1c2c(c(O)c(C(=O)NC)c1=O)CCCC2 . Is its viability strictly less than 90%? 0.0

Consider the compound Cc1ccc(-c2nc(=S)c3c(n2Cc2ccco2)CCCC3)cc1 . Is its viability strictly less than 90%? 1.0

Consider the compound Cc1ccc(-c2cc(C(=O)O)n[nH]2)o1 . Is its viability strictly less than 90%? 0.0

Consider the compound COc1ccc(OC)c(S(=O)(=O)NCCC2=CCCCC2)c1 . Is its viability strictly less than 90%? 0.0

Consider the compound N/C(=N/O)c1nc(N2CCCC2)nc(N(c2ccccc2)c2ccccc2)n1 . Is its viability strictly less than 90%? 1.0

Next:
Consider the compound CC1(C)Cc2noc(N)c2C(C)(C)N1OC(=O)c1ccccc1 . Is its viability strictly less than 90%? 1.0

Consider the compound Cc1cc(C)n(-c2nc(C)nc3sc4c(c23)CCC(C)C4)n1 (centres undefined) . Is its viability strictly less than 90%? 0.0

Consider the compound CCc1ccc(CNCc2cccnc2)cc1 . Is its viability strictly less than 90%? 1.0

Consider the compound CCOC(=O)/N=C(/NC(=O)Nc1ccc(C(=O)OCC)cc1)OC . Is its viability strictly less than 90%? 1.0

Consider the compound COc1cc(OC)cc(-c2nc3cc(C)ccc3o2)c1 . Is its viability strictly less than 90%? 1.0

Consider the compound CC[N+](C)(C)c1cccc(O)c1 . Is its viability strictly less than 90%? 1.0

Consider the compound CCOC(=O)c1ccccc1NC(=O)Cn1cnc2c(cnn2-c2ccc(OC)cc2)c1=O . Is its viability strictly less than 90%? 0.0

Consider the compound CCCN(CCC)S(=O)(=O)c1ccc(NS(C)(=O)=O)cc1 . Is its viability strictly less than 90%? 0.0

Consider the compound CCC(=O)N1CCc2cc(S(=O)(=O)CCC(=O)Nc3ccc(C)c(F)c3)ccc21 . Is its viability strictly less than 90%? 1.0

Consider the compound COc1ccccc1N1CCN(c2nc3ccccc3nc2C(C#N)C(=O)OC(C)C)CC1 (centres undefined) . Is its viability strictly less than 90%? 1.0
